test: P. berghei load reduction in hepatocytes – cell-based, HepG2, luciferase luminescence, HepG2 viability, primary screen (AID 624349);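 also: 100% = mean of DMSO negative control wells on the same plate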; conditions: P. berghei liver stage in HepG2, luciferase luminescence, concentration not given here; measured here: HepG2 viability without parasites
# viability annotations
Measured metric: viability (%)

| Compound | Measured metric | Units | Quantitative readout |
| --- | --- | --- | --- |
| CC(C)C[C@H](NC(=O)[C@@H](COC(C)(C)C)NC(=O)[C@H](Cc1ccc(O)cc1)NC(=O)[C@H](CO)NC(=O)[C@H](Cc1c[nH]c2ccccc12)NC(=O)[C@H](Cc1cnc[nH]1)NC(=O)[C@@H]1CCC(=O)N1)C(=O)N[C@@H](CCCN=C(N)N)C(=O)N1CCC[C@H]1C(=O)NNC(N)=O | viability | % | 102 |
| CCC(=O)OC(OP(=O)(CCCCc1ccccc1)CC(=O)N1C[C@H](C2CCCCC2)C[C@H]1C(=O)O)C(C)C (stereo not given in full) | viability | % | 108 |
| CNC1(C)[C@H]2CC[C@H](C2)C1(C)C (stereo not given in full) | viability | % | 108 |
| CO[C@@H]1[C@@H](OC(N)=O)[C@@H](O)C(Oc2ccc3c(O)c(NC(=O)c4ccc(O)c(CC=C(C)C)c4)c(=O)oc3c2C)OC1(C)C (stereo not given in full) | viability | % | 90.9 |
| CN(C)C/C=C(\c1ccc(Br)cc1)c1cccnc1 | viability | % | 47.6 |

---

assay: growth inhibition, single agents and combos, HTB85, cell-based, BGB or cisplatin IC20 combos, synergistic combos for chromothripsis tumors (AID 1671453); conditions: HTB85 osteosarcoma cells, drug combinations, measured here: with cisplatin IC20, at 5 µM, stronger effect = higher value;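 also: cells exposed for 96 hours before readout; 0% = vehicle DMSO and 100% = high DMSO killing control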
Non-standard residues stand in square brackets, D forms with d. Residues, ends and D or L forms follow the SMILES beside them. Dolaproine = CO[C@@H]([C@@H]1CCCN1)[C@@H](C)C(=O)O; Dil = CC[C@H](C)[C@H](NC)[C@@H](CC(=O)O)OC; NMeV = CN[C@H](C(=O)O)C(C)C
# inhibition annotations

| Compound | Units | inhibition |
| --- | --- | --- |
| CC(C)(C#N)c1ccc(N2C(=O)OCc3cnc4ccc(-c5cnc6ccccc6c5)cc4c32)cc1 | % | 28.2 |
| CC[C@H](C)[C@@H]([C@@H](CC(=O)N1CCC[C@H]1[C@H](OC)[C@@H](C)C(=O)N[C@@H](Cc1ccccc1)C(=O)O)OC)N(C)C(=O)[C@@H](NC(=O)[C@@H](NC)C(C)C)C(C)C (H-[NMeV]V[Dil][Dolaproine]F-OH) | % | 67.1 |
| Cc1c(Br)cc(NCC(=O)N/N=C/c2cc([N+](=O)[O-])ccc2O)cc1Br | % | 5.29 |
| CC(C=CC(=O)NO)=CC(C)C(=O)c1ccc(N(C)C)cc1 (configuration not stated) | % | 100 |
| C#CCC(CCCCCC)C(=O)O (configuration not stated) | % | -7.57 |
| Cc1cn(C2C=CC(CO)O2)c(=O)[nH]c1=O (configuration not stated) | % | -14.5 |
| CC=C1NC(=O)C2CSSCCC=CC(CC(=O)NC(C(C)C)C(=O)N2)OC(=O)C(C(C)C)NC1=O (configuration not stated) | % | 99.9 |
| C=CC1=C(C)C2=CC3=NC(=C(CC(=O)O)C4=NC(=C(C)C4=C(O)O)C=c4[nH]c(c(C)c4CC)=CC1=N2)C(CCC(=O)O)C3C (configuration not stated) | % | -1.9 |
| COc1ccccc1S(=O)(=O)Nc1ccc2c(c1)CN(C)C(=O)N2 | % | 31.4 |
| NC(=O)c1ncn(C2OC(CO)C(O)C2O)c1O (configuration not stated) | % | 26.5 |
| O=c1[nH]c(=O)n(C2CC(O)C(CO)O2)cc1I (configuration not stated) | % | -31.8 |
| Cc1cc(C=CC#N)cc(C)c1Nc1ccnc(Nc2ccc(C#N)cc2)n1 | % | -20.2 |
